These entries and their values trace back to patent US20220098591.

- ASSAY_TARGET: T1, VEGF-A165 (Homo sapiens)
- T1 chain: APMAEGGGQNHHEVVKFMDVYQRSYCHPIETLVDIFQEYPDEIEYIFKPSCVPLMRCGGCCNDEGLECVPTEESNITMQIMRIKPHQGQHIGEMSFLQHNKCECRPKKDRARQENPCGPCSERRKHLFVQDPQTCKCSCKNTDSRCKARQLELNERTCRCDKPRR
- TEST: direct TR-FRET, MOPS pH 7.4, 1 mM CaCl2, 1 mM MgCl2, RT
- STATED_CONDITIONS: tags: glycan-biotinylated for SPR/FRET/AlphaLISA; Acro BioSystems, R&D Systems; chain copies: 2 (inferred); stem-loop
QUANTITY_KIND: pKd
Here pKd is given on a logarithmic scale as minus log10 of the concentration in mol/L.

stdin: Which pKd is reported for this binder? UAGGCCGCCUCCGCGCGGAGGGGUUUCAUUAUCCCGUUUGGCGGCUUU (ssRNA, all G 2'-F; all A,C,U 2'-OMe; 5' C6NH2; 3' idT (Tables 14-16 print it without the terminal U residues)) [Aptamer 26]
stdout: 8.40
